Values compiled from patent EP4585599A1.

- TEST: cells
- ASSAY_SETUP: Homo sapiens, DLD-1, 240 h, read-out: Cell viability assay IC50 (nM), CTG assay, CellTiter Glo, read on Day 10; cell line not given
PARAMETER: IC50 (nM)
A number alone suffices; assume nM.

- COc1cnc(C(F)F)cc1-c1cc(C)ncc1C(=O)Nc1nc2cnc(-c3c(C)nnn3C)c(F)c2s1 [Example 215]: 2.92

Consider the record given below.
What IC50 value was documented for this compound, COc1cnc(C(F)F)cc1-c1cc(C)ncc1C(=O)Nc1nc2cnc(N3CCOCC3=O)nc2s1 [Example 204] ?
541

----------
- TARGET_SYSTEM: helicase domain of the Pol θ protein (Homo sapiens, UniProt O75417)
- Construct: The helicase domain of the Pol θ protein was purified from insect protein expression system; made in house; host or cells: insect protein expression system
- Sequence (O75417 102-554 limits assumed): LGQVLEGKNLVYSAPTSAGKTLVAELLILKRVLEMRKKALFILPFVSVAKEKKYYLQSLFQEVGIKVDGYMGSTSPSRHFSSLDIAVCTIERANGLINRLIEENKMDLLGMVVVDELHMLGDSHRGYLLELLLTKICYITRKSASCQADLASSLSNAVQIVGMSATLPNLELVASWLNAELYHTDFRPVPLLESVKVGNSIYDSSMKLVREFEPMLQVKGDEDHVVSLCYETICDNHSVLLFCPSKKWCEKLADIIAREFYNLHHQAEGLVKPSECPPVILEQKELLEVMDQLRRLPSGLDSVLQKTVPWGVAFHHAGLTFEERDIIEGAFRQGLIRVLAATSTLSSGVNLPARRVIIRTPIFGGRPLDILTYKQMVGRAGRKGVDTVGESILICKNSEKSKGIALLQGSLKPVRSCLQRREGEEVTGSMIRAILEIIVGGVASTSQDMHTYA
- TEST: Biochemical Activity Assay (ADP Glo Assay) of Pol θ inhibitor, ATPase activity
- ASSAY_SETUP: ADP-Glo assay, ATPase activity of Pol θ helicase domain, ssDNA substrate; read-out: Biochemical assay IC50
PARAMETER: IC50

Which IC50 value belongs to COc1cnc(C(F)F)cc1-c1cc(C)ncc1C(=O)Nc1nc2cnc(-c3c(C)cnn3C)cc2s1 ?
2.93 nM

What value of IC50 has been recorded for this entry: COc1cnc(Cl)cc1-c1cc(C)ncc1C(=O)Nc1nc2cnc(-c3nnnn3C)cc2s1
36.3 nM

Name the reported IC50 value associated with the molecule COc1cnc(Cl)cc1-c1cc(C)ncc1C(=O)Nc1nc2c(s1)CN(Cc1ccncc1)CC2
103 nM

Entry COc1cnc(Cl)cc1-c1cc(C)ncc1C(=O)Nc1nc2ccc(N3CC[C@H](O)C[C@H]3C)nc2s1 has what IC50?
25.8 nM

Need IC50 of COc1cnc(Cl)c(F)c1-c1cc(C)ncc1C(=O)Nc1nc2ncc(C3=CCC(O)CC3)cc2s1 (stereo not drawn) , thanks.
1.09 nM

Entry under review: COc1cnc(Cl)cc1-c1cc(C)ncc1C(=O)Nc1nc2ccc(-c3c(C)cnn3C)c(F)c2s1 . Reported IC50?
8.57 nM

If you can, please state the reported IC50 value of COc1cnc(Cl)cc1-c1cc(C)ncc1C(=O)Nc1nc2cc(F)c(-c3c(C)nnn3C)nc2s1 .
20.7 nM

Value lookup for IC50; key = COc1cnc(Cl)cc1-c1cc(C)ncc1C(=O)Nc1nc2ncc(C(C)(C)O)cc2s1
8.94 nM

Dear colleague, I am looking for the recorded IC50 of the following molecule: [2H]C([2H])([2H])n1ncc(C)c1-c1cc2sc(NC(=O)c3cnc(C)cc3-c3cc(Cl)ncc3OC)nc2cn1
2.29 nM

Which value of IC50 has been reported for COc1cnc(Cl)cc1-c1cc(C)ncc1C(=O)Nc1nc2ccc(N3CCC(O)CC3)nc2s1 in the records?
8.31 nM

----------
- TEST: Mouse PK assay after oral administration
- ASSAY_SETUP: mice, oral, administration dose 30 mg/kg, plasma
Measured Peak concentration, listed per entry.
Form entry: value (ng/mL) — number only.

// known answers, use as guide
* COc1cnc(C(F)F)cc1-c1cc(C)ncc1C(=O)Nc1nc2cnc(-c3c(C)nnn3C)cc2s1 | 44133
* COc1cnc(Cl)c(F)c1-c1cc(C)ncc1C(=O)Nc1nc2cnc(-c3c(C)nnn3C)c(F)c2s1 | 156130
* COc1cnc(Cl)c(F)c1-c1cc(C)ncc1C(=O)Nc1nc2cnc(-c3c(C)nnn3C)cc2s1 | 43555
* COc1cnc(C(F)F)cc1-c1cc(C)ncc1C(=O)Nc1nc2cnc(-c3c(C)noc3C)cc2s1 | 52444

State the recorded Peak concentration for this entry: COc1cnc(Cl)cc1-c1cc(C)ncc1C(=O)Nc1nc2cnc(-c3c(C)nnn3C)cc2s1
42933

Could you tell me which Peak concentration is on file for COc1cnc(Cl)cc1-c1cc(C)ncc1C(=O)Nc1nc2cnc(-c3c(C)nnn3C)c(F)c2s1 ?
89917

So what's the measured Peak concentration for this one? COc1cnc(Cl)cc1-c1cc(C)ncc1C(=O)Nc1nc2cnc(-c3c(C)noc3C)cc2s1
43083

----------
- TARGET_SYSTEM: helicase domain of the Pol θ protein (Homo sapiens, UniProt O75417)
- Construct: The helicase domain of the Pol θ protein was purified from insect protein expression system; made in house; host or cells: insect protein expression system
- TEST: Biochemical Activity Assay (ADP Glo Assay) of Pol θ inhibitor, ATPase activity
- ASSAY_SETUP: ADP-Glo assay, ATPase activity of Pol θ helicase domain, ssDNA substrate; read-out: Biochemical assay IC50
PARAMETER: pIC50
By convention, pIC50 is the negative base-10 log of a molar concentration.

- COc1cnc(Cl)cc1-c1cc(C)ncc1C(=O)Nc1nc2ncc(C(=O)N3CCC(O)CC3)cc2s1 [Example 96]: 8.25

Would you mind telling me what pIC50 value was observed for COc1cnc(Cl)cc1-c1cc(C)ncc1C(=O)Nc1nc2ccc(N3CCn4ccnc4C3)nc2s1 [Example 139] ?
7.72

Returns the measured pIC50 for the input compound. Input: [2H]C1(O)CC=C(c2cc3sc(NC(=O)c4cnc(C)cc4-c4cc(Cl)ncc4OC)nc3cn2)CC1 (stereo not drawn) [Example 111]
8.42

Name the reported pIC50 value associated with the compound COc1cnc(Cl)cc1-c1cc(C)ncc1C(=O)Nc1nc2cnc(-c3c(C)nnn3C)c(OC)c2s1 [Example 229]
7.44

Look at this compound and give its reported pIC50. COc1cnc(Cl)cc1-c1cc(C)ncc1C(=O)Nc1nc2ccc(N3CCOCC3=O)nc2s1 [Example 202]
8.21

----------
- TEST: cells
- ASSAY_SETUP: Homo sapiens, DLD-1, 240 h, read-out: Cell viability assay IC50 (nM), CTG assay, CellTiter Glo, read on Day 10; cell line not given
Listing of entries alongside the reported IC50.
Respond with the bare value in nM.

* COc1cnc(Cl)cc1-c1cc(C)ncc1C(=O)Nc1nc2cnc(N3CC4(CC(O)C4)C3)nc2s1 [Example 142] | 104

Given the compound COc1cnc(Cl)cc1-c1cc(C)ncc1C(=O)Nc1nc2ncc(N3CCC(OC)CC3)cc2s1 [Example 66] , what is its reported IC50?
192

Which IC50 is listed for COc1cnc(C(F)F)cc1-c1cc(C)ncc1C(=O)Nc1nc2ccc(-c3c(C)nnn3C)cc2s1 [Example 223] ?
10

Quick check: IC50 of COc1cnc(Cl)cc1-c1cc(C)ncc1C(=O)Nc1nc2ccc(N3CCC(O)CC3)cc2s1 [Example 102] ?
178

----------
- TARGET_SYSTEM: helicase domain of the Pol θ protein (Homo sapiens, UniProt O75417)
- Construct: The helicase domain of the Pol θ protein was purified from insect protein expression system; made in house; host or cells: insect protein expression system
- TEST: Biochemical Activity Assay (ADP Glo Assay) of Pol θ inhibitor, ATPase activity
- ASSAY_SETUP: ADP-Glo assay, ATPase activity of Pol θ helicase domain, ssDNA substrate; read-out: Biochemical assay IC50
Reported pIC50 values are given for each entry in this list.
Hey, just a heads up that pIC50 is the negative log base 10 of the concentration in molar.

Request the reported pIC50 associated with COc1cnc(Cl)cc1-c1cc(C)ncc1C(=O)Nc1nc2cnc(-c3c(C)nn(C)c3C#N)cc2s1 [Example 150]
8.25

Looking for the measured pIC50 of COc1cnc(Cl)cc1-c1cc(C)ncc1C(=O)Nc1nc2ncc(N3CCC4(CC(O)C4)C3)cc2s1 (stereo not shown) [Example 99] , can you help?
7.84

Reported pIC50 for COc1cnc(Cl)cc1-c1cc(C)ncc1C(=O)Nc1nc2ccc(N3CCn4cncc4C3)nc2s1 [Example 137] : what is it?
7.60

Find the recorded pIC50 belonging to COc1cnc(C(F)F)cc1-c1cc(C)ncc1C(=O)Nc1nc2cnc(-c3c(C)nnn3C)c(F)c2s1 [Example 215] and report it.
8.51

----------
- TEST: Mouse PK assay after oral administration
- ASSAY_SETUP: male, ICR, mouse, plasma, po, 100 mg/kg
PARAMETER: MRT (h)
Report the value in h with no unit label.

- COc1cnc(Cl)cc1-c1cc(C)ncc1C(=O)Nc1nc2ncc(N3CCC(O)CC3)nc2s1: 2.2

With those in mind, consider the next compound.
Please give the measured MRT for this compound: COc1cnc(Cl)cc1-c1cc(C)ncc1C(=O)Nc1nc2cnc(-c3c(C)cnn3C)cc2s1
3.45

----------
Measured half-life, listed per entry for reference.
- TEST: Mouse PK assay after oral administration
- ASSAY_SETUP: male, ICR, mouse, plasma, po, 100 mg/kg
State just the number; it will be interpreted in h.

* COc1cnc(Cl)cc1-c1cc(C)ncc1C(=O)Nc1nc2cnc(-c3c(C)cnn3C)cc2s1 | 2.12

Okay, now this compound:
Report half-life for COc1cnc(Cl)cc1-c1cc(C)ncc1C(=O)Nc1nc2ncc(N3CCC(O)CC3)nc2s1 please.
2.91
